Cited source: patent US4683242A

Parameter: % Change (edema vs control). Scope: all listed entries.
# System: Carrageenan-Induced Rat-Paw Edema
# protocolDescription: Carrageenan Induced Rat-Paw Edema, dermal application (antiinflammatory)
# Format: in vivo
# conditionSummary: Table 3; Formula A cream, pH = 7.0; 0.2 ml, 3.2% by weight; dermal; p = <0.05
Where a name gives a salt, the structure may show the parent alone.
Numbers only here, please. The scale is %.

Guide cases for % Change (edema vs control), answers given:
molecule | experimentalTarget | unitDescriptor | quantitativeReadout
Nc1c(CC(=O)O)cccc1C(=O)c1ccc(I)cc1 | Carrageenan-Induced Rat-Paw Edema | % | -57
CCOC(=O)Cc1cccc(C(=O)c2ccc(Br)cc2)c1N | Carrageenan-Induced Rat-Paw Edema | % | -46
CCOC(=O)Cc1cccc(C(=O)c2ccccc2)c1N | Carrageenan-Induced Rat-Paw Edema | % | -71
Cc1ccc(C(=O)c2cc(Cl)cc(CC(=O)O)c2N)cc1 | Carrageenan-Induced Rat-Paw Edema | % | -64

Then there is this molecule:
## Task // lookup % Change (edema vs control) | system=Carrageenan-Induced Rat-Paw Edema | key= CSc1ccc(C(=O)c2cc(F)cc(CC(=O)O)c2N)cc1 [Example 19, sodium salt]
## Result -41
